Hello, the source for this data is the supplement of paper PMC6757056, in case you need it.

B1: library; a variant is named by its letters at N, in order (parent)
chain: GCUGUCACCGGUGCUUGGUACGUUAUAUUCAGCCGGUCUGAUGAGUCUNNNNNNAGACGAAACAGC

Variants of: B1
assay_procedure: normalized RNA/DNA level without ligand (relative to sTRSVctl = 100) (log10 (% of sTRSVctl)); HEK293T overexpressing SLC46A1; higher = less ribozyme self-cleavage, higher mRNA level
experimental_context: without (6R,S)-folinic acid; ligand present: no
recorded_endpoint: normalized RNA/DNA level without ligand (log10)

CAGCGU = 2
AAAGUA = 1.94
CCCACA = 2.05
GCGCGA = 2.05
UGCUUG = 1.76
UCAUUG = 1.88
UGGGCC = 2.05
AAAUCA = 2
ACUUUC = 2.04
CCGAAA = 2
CUUUAU = 1.98
AGUUGU = 1.96
AUGAGA = 1.94
CUUUUC = 2.06
AACCCU = 2.05
AGGGGA = 2
GGACAA = 1.98
CUUGGG = 1.97
CCCGGC = 2.08
AACACC = 2.05
GUACUG = 2
GGUCAU = 2.01
